System: ragweed
Assay: Test A pre-/postemergence herbicide test
Assay type: in vivo, Ambrosia elatior
Settings: Postemergence, 500 g ai/ha
Catalogue of Ragweed plant response rating (0 to 100 scale, 0 is no effect, 100 is complete control) values
Form rule: numeric answer, no unit written next to it.

Q: State its Ragweed plant response rating (0 to 100 scale, 0 is no effect, 100 is complete control): O=C1NCC(c2ccc(OC(F)F)cc2)C1C(=O)Nc1ccccc1Cl (centres unmarked)
A: 0

Q: State its Ragweed plant response rating (0 to 100 scale, 0 is no effect, 100 is complete control): Cc1cc(NC(=O)C2C(=O)NCC2c2cccc(C(F)(F)F)c2)ccc1F (racemic)
A: 0

Q: State its Ragweed plant response rating (0 to 100 scale, 0 is no effect, 100 is complete control): O=C1NCC(c2cccc(C3CC3)c2)C1C(=O)Nc1ccccc1F (racemic)
A: 0

Q: State its Ragweed plant response rating (0 to 100 scale, 0 is no effect, 100 is complete control): O=C1NCC(c2cccc(C(F)(F)F)c2)C1C(=O)Nc1nc(C(F)(F)F)co1 (racemic)
A: 0
